# assay_procedure: optical density change of DRC41 E. coli – strain DRC41, OD650, 24 h, E. coli filamentation project, primary screen (AID 1093);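 further: MC1000 strain lacking acrAB efflux and sulA so SOS filamentation is blocked; test concentration not given here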
# run_conditions: E. coli DRC41 growth, higher = more signal, called active from +8 up or from −8 down
quantity: z-score
Answer as a number with no unit attached.

Worked examples, 2 compounds total:
get_value(item= COc1ccc(C(=O)Nc2cccc(CN3C(=O)[C@@]4(O[C@@H](CC(=O)N5CCC[C@H]5CO)[C@H]([Si](C)(C)c5ccc(OC)cc5)[C@H]4C)c4ccccc43)c2)cc1 , readout=z-score) returns -0.126

get_value(item= COC(=O)[C@@]1(Cc2ccc(OC)cc2)[C@H]2c3cc(C(=O)N4CCCC4)n(Cc4ccc(Cl)c(C(F)(F)F)c4)c3C[C@H]2CN1C(=O)c1ccccc1 , readout=z-score) returns -0.304

Alright, here's another compound for you.
get_value(item= CC(=O)NCCCC[C@@H]1NC(=O)[C@H]2C[C@@H](C(=O)NCCCCCCNC(=O)CS)[C@@H](c3cccc(OCCO)c3)N2C1=O , readout=z-score) returns -0.488

---

# assay_procedure: growth of efflux-deficient E. coli DRC39 – strain DRC39, OD650, 48 h, E. coli filamentation inducers, primary screen (AID 1179);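 further: screen aims at cell division blockers that make cells filament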
# run_conditions: E. coli DRC39 delta-acrAB growth, higher = more signal, called active from +8 up or from −8 down
quantity: z-score
Answer as a number with no unit attached.

get_value(item= OCCCC1=CC(c2ccc(CN3CCCC3)cc2)N(Cc2cccc(OC(F)(F)F)c2)CC1 (stereo not drawn) , readout=z-score) returns -1.83

get_value(item= CCOC(=O)C1=C[C@@H](C(C)(C)C)N(S(=O)(=O)c2ccc(C)cc2)[C@H]1c1ccc(C#N)cc1 , readout=z-score) returns -0.361

get_value(item= CC1CC/C=C\[C@H]2OC34C=CCN(Cc5ccccc5)C(=O)[C@H]3N(CCCCCCO)C(=O)[C@@H]4C2C(=O)O1 (stereo partly drawn) , readout=z-score) returns 1.01

Others:
get_value(item= O=C(NC1CC1)[C@@H]1c2ccccc2C(=O)N(CC23CC4CC(CC(C4)C2)C3)[C@H]1c1ccc(CO)cc1 , readout=z-score) returns -0.428

get_value(item= CC(C)OC(=O)CC(=O)CC(O)c1cccc([N+](=O)[O-])c1 (stereo not drawn) , readout=z-score) returns 2

get_value(item= COc1ccc(C(=O)Nc2cccc(CN3C(=O)[C@@]4(O[C@@H](CC(=O)N5CCC[C@H]5CO)[C@H]([Si](C)(C)c5ccc(OC)cc5)[C@H]4C)c4ccccc43)c2)cc1 , readout=z-score) returns 0.274

get_value(item= C=C(CCCC)/C(=C/C[C@H](OC(C)=O)c1cccc(OCCO)c1)c1cnc2ccccc2c1 , readout=z-score) returns 0.211

get_value(item= Cc1ccc(S[C@]2(C(=O)NCCCN(C)C)CC(=O)N(Cc3ccccc3C(F)(F)F)[C@@H]2c2ccc(CO)cc2I)cc1 , readout=z-score) returns -0.65

---

# assay_procedure: budding yeast growth changes without added modifier – OD600, strain BY4716, 24 h, basal condition, primary screen (AID 1173)
# run_conditions: S. cerevisiae BY4716 growth, OD600, 24 h; higher = more signal, called active from +8 up or from −8 down
quantity: z-score
Answer as a number with no unit attached.

get_value(item= O=C(NC1CC1)[C@@H]1c2ccccc2C(=O)N(Cc2ccc(OC(F)(F)F)cc2)[C@H]1c1ccc(CO)cc1 , readout=z-score) returns -0.327

get_value(item= O=C(O)[C@H](Cc1ccccc1)n1cc(C2(O)CCCCC2)nn1 , readout=z-score) returns -0.415

get_value(item= COC(=O)[C@@]1(Cc2ccccc2)[C@H]2c3cc(C(=O)N(C)C)n(Cc4ccc(C(F)(F)F)nc4)c3C[C@H]2CN1C(=O)c1ccccc1 , readout=z-score) returns 2.47

get_value(item= CC(=O)NCCCC[C@@H]1NC(=O)[C@H]2C[C@@H](C(=O)NCCCCCCNC(=O)CS)[C@@H](c3cccc(OCCO)c3)N2C1=O , readout=z-score) returns 0.535

get_value(item= CC(C)=CCCC(C)=CC(O)C1C=CC2C(=O)NC(=O)C2N1Nc1ccccn1 (stereo not drawn) , readout=z-score) returns 0.386

Others:
get_value(item= CN(C)CCCNC(=O)[C@@]1(C)c2ccccc2C(=O)N(Cc2ccc(OC(F)(F)F)cc2)[C@H]1c1ccc(CO)cc1 , readout=z-score) returns -1.69

get_value(item= CCCNC(=O)[C@@]1(c2ccc([N+](=O)[O-])cc2)CC(=O)N(C(C)C)[C@@H]1c1ccc(CO)cc1 , readout=z-score) returns -0.324

get_value(item= O=C(NCCN1CCOCC1)[C@@H]1c2ccccc2C(=O)N(Cc2ccc(OC(F)(F)F)cc2)[C@H]1c1ccc(CO)cc1 , readout=z-score) returns -0.559

---

# experimental_system: Epidermal growth factor receptor (Homo sapiens)
# assay_procedure: compounds binding epidermal growth factor receptor – biochemical, small-molecule microarray, 635 nm fluorescence, primary screen (AID 1104);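 further: score merges 667 nm emission intensity with spot signal to noise over triplicate slides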
# run_conditions: EGFR binding, higher = more signal
quantity: composite z-score
Answer as a number with no unit attached.

Worked examples, 5 compounds total:
The compound C=C(C)[C@@H]1CC=C(C(O)C2C=CC3C(=O)N(C)C(=O)C3N2Nc2ccc([N+](=O)[O-])cc2[N+](=O)[O-])CC1 (some centres undefined) , when measured on Epidermal growth factor receptor (Homo sapiens), yielded composite z-score of 0.963

The compound C=CC1c2cc(O)c(OC)cc2CCN1C (centres undefined) , when measured on Epidermal growth factor receptor (Homo sapiens), yielded composite z-score of -0.534

The compound COC(=O)[C@@]1(Cc2ccccc2)[C@H]2c3cc(C(=O)N(C)C)n(CCSC(=N)N)c3C[C@H]2CN1C(=O)c1ccccc1 , when measured on Epidermal growth factor receptor (Homo sapiens), yielded composite z-score of -0.649

The compound NC(=O)N1C(=O)C2C(C1=O)C1C=C(CCCO)C2C(c2ccc(CN3CCCC3)cc2)N1Cc1sc2ccccc2c1Cl (centres undefined) , when measured on Epidermal growth factor receptor (Homo sapiens), yielded composite z-score of -0.243

The compound [N-]=[N+]=Nc1ccccc1[C@@H]1OC(c2ccc(OCCCO)cc2)=N[C@]1(CCS(=O)(=O)c1ccccc1)C(=O)NCC(O)CO (some centres undefined) , when measured on Epidermal growth factor receptor (Homo sapiens), yielded composite z-score of -0.586

Others:
The compound Cc1ccc(S[C@]2(C(=O)NCCCN(C)C)CC(=O)N(Cc3ccccc3C(F)(F)F)[C@@H]2c2ccc(CO)cc2I)cc1 , when measured on Epidermal growth factor receptor (Homo sapiens), yielded composite z-score of -1.04

The compound CN(C)CCCNC(=O)[C@@]1(C)c2ccccc2C(=O)N(Cc2ccc(OC(F)(F)F)cc2)[C@H]1c1ccc(CO)cc1 , when measured on Epidermal growth factor receptor (Homo sapiens), yielded composite z-score of -0.786

The compound COC(=O)C1=CC(CCCO)=CC(c2cccs2)N(Cc2cc3c(cc2Br)OCO3)C=C1C(=O)OC (centres undefined) , when measured on Epidermal growth factor receptor (Homo sapiens), yielded composite z-score of 0.511

The compound COc1ccc([Si](C)(C)[C@@H]2[C@@H](CC(=O)N3CCC[C@H]3CO)O[C@]3(C(=O)N(Cc4ccc(N5CCOC5=O)cc4)c4ccccc43)[C@H]2C)cc1 , when measured on Epidermal growth factor receptor (Homo sapiens), yielded composite z-score of -0.0626

The compound COC(=O)[C@@]1(Cc2ccccc2)[C@H]2c3cc(C(=O)N(C)C)n(Cc4ccc(C(F)(F)F)nc4)c3C[C@H]2CN1C(=O)c1ccccc1 , when measured on Epidermal growth factor receptor (Homo sapiens), yielded composite z-score of -0.405

---

# assay_procedure: probe aShh binding to arrayed compounds – biochemical, biotinylated probe, 635/667 nm fluorescence, primary screen (AID 1114);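 further: probe is biotin-labelled aShh protein from a stem cell growth factor screen; measures binding of labelled protein to compounds printed on the slide; score merges feature fluorescence at 667 nm with signal-to-noise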
# run_conditions: small-molecule microarray, higher = more signal
The following molecules are listed with their measured composite z-score values.
Answer as a number with no unit attached.

get_value(item= CCCC[C@H]1OB(O)C[C@H]2C1=C(COc1ccccc1)C[C@H]1C(=O)C=CC(=O)[C@H]12 , readout=composite z-score) returns -0.283

get_value(item= CC(=O)NCCCC[C@@H]1NC(=O)[C@H]2C[C@@H](C(=O)NCCCCCCNC(=O)CS)[C@@H](c3cccc(OCCO)c3)N2C1=O , readout=composite z-score) returns 0.0444

Others:
get_value(item= CC(C)C(O)C1C=CC2C(=O)NC(=O)C2N1Nc1ccccn1 (stereo not drawn) , readout=composite z-score) returns -0.0793

get_value(item= CC(C)OC(=O)CC(=O)CC(O)c1cccc([N+](=O)[O-])c1 (stereo not drawn) , readout=composite z-score) returns 0.418

get_value(item= COC(=O)[C@@]1(Cc2ccc(OC)cc2)[C@H]2c3cc(C(=O)N4CCCC4)n(Cc4ccc(C(F)(F)F)nc4)c3C[C@H]2CN1C(=O)c1ccccc1 , readout=composite z-score) returns -0.153

get_value(item= CN(C)CCCC[C@@H]1NC(=O)[C@@H]2C[C@H](C(=O)NCCCCCN)[C@H](c3cccc(OCCO)c3)N2C1=O , readout=composite z-score) returns -0.16

get_value(item= COC(=O)[C@@]1(Cc2ccccc2)[C@H]2c3cc(C(=O)N4CCCC4)n(Cc4ccc(OC)c(OC)c4)c3C[C@H]2CN1C(=O)c1ccccc1 , readout=composite z-score) returns 0.853

get_value(item= CC1CC/C=C\[C@H]2OC34C=CCN(c5ccc(Cl)cc5)C(=O)[C@H]3N(CCCCCCO)C(=O)[C@]4(C)C2C(=O)O1 (stereo partly drawn) , readout=composite z-score) returns -0.138

Entry source: PubChem BioAssay
